Reference source: patent US4985560A

# ASSAY_SYSTEM: M1 muscarinic receptor (Rattus norvegicus)
# Sequence (P08482 1-460): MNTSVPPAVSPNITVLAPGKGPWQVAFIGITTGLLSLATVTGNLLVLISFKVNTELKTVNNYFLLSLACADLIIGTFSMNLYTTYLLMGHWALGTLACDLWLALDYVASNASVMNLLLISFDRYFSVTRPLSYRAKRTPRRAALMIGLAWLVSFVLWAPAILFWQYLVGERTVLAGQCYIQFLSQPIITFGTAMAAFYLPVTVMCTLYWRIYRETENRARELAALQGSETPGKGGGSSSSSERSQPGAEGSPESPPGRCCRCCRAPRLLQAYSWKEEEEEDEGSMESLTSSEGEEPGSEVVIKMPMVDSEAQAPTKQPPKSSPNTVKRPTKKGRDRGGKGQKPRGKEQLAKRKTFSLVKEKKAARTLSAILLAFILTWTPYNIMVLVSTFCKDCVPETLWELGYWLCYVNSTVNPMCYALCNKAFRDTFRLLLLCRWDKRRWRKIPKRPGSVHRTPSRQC
MEASURED_ATTRIBUTE: pIC50
pIC50 is a log-scale quantity: -log10 of the concentration expressed in molar.

Answered cases to consult:
Challenge: What value of pIC50 has been recorded for this entry: "CCN(CC)CCCNc1nnc(C)c2c1cc1ccccn12"
Response given: 7.01

Challenge: Would you mind doing "Cc1nnc(NCCCN2CCOCC2)c2cc3ccccn3c12" as well?
Response given: 6.57

Challenge: Follow-up entry: "Cc1nnc(NCCN2CCOCC2)c2cc3ccccn3c12"
Response given: 5.61

***
Challenge: Which measured pIC50 value corresponds to "Cc1nnc(NCCCN(C)C)c2cc3ccccn3c12" ?
Response given: 6.22

Challenge: How about this molecule: "Cc1nnc(NCCCN2CCCCC2)c2cc3ccccn3c12"
Response given: 6.96
